All values here come from paper PMC4081072.

- SYSTEM_TESTED: T1, Nrd1 307-491 WT (Saccharomyces cerevisiae, UniProt P53617 307-491)
- T1 sequence: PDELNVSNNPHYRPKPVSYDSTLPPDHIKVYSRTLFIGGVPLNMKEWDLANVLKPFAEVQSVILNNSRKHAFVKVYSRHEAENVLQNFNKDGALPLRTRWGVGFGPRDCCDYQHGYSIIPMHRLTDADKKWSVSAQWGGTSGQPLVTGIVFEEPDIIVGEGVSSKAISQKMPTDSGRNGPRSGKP
- PROTOCOL: fluorescence anisotropy; FA: 10 nM RNA, 50 mM sodium phosphate pH 8, 150 mM NaCl, 10 mM beta-mercaptoethanol, 20 C (protein stock in 300 mM NaCl); NMR: same buffer with 300 mM NaCl, 20
- COND: protein: recombinant; tags: C-terminal His6; label: 5' fluorescein or TAMRA
EXPERIMENTAL_ENDPOINT: pKd
# pKd: negative log10 of molar concentration; output just the value

>>> df
                                     binder  data_value
0                           AUUAUUA (ssRNA)        4.83
1  AGCGUGAAUUAAGAGCGUAUAUAUAA (ssRNA) [win78dNrd1dNab3]        5.10
2                           AUAUAUA (ssRNA)        4.95
3                           UGGUGGU (ssRNA)        5.17
4                      UUUUUUU (ssRNA) [U7]        4.16
5                           CAGCGUC (ssRNA)        4.42

The record that follows has no pKd shown yet.
Requested read-out: pKd. Entry: UCUUG (ssRNA)
4.39
